Kindly state TGI for each of the entries shown.
- Test system: MDA-MB-435
- METHOD NOTES: NCI tumour cell line growth inhibition, 48 h

COMPOUND	TGI
C=C1C(=O)O[C@H]2[C@H]1CC/C(C=Nc1c(N)cc(C(F)(F)F)cc1Br)=C\CC[C@@]1(C)O[C@@H]21	5.74 µM

Would you be so kind as to report TGI for each listed record?
1. COC(=O)C1=Nc2c(C)nn(-c3ccccc3)c2N=C(c2ccccc2)C1
2. O=C(N/N=C/c1ccccc1O)c1ccccc1
3. CCOC(=O)C1CCC(=O)N1C(=O)c1ccccc1 (stereo unspecified)
4. CCOC(=O)c1nc2cc(C(F)(F)F)ccc2nc1Nc1ccc(C(=O)NC(C(=O)OCC)C(=O)OCC)cc1
5. C\C(=N/N=C1/C(=C\N(C)C)C(=O)NC(=O)N1C)c1ccc(Cl)cc1
6. OCc1ccc2c(c1)CC1(Cc3ccc(/C=N/O)cc3C1)C2 (stereo unspecified)
7. O=c1cc(-c2ccccc2)oc2c(-c3cc(Cl)cc4c(=O)cc(-c5ccccc5)oc34)cc(Cl)cc12
8. O=c1cc(N2CCCC2)[nH]c(=O)n1-c1ccccc1

1. > 10 µM
2. > 100 µM
3. > 100 µM
4. > 100 µM
5. > 100 µM
6. 1.51 µM
7. > 100 µM
8. > 100 µM

Would you be so kind as to report TGI for each listed record?
1. CO[C@@H]1O[C@H](C(=O)c2ccccc2)[C@H]2OC(C)(C)O[C@@H]12
2. COC1CC(OC2CCC3(C)C(=CCC4C3C(OC(C)=O)C(OC(=O)CC(C)C)C3(C)C(C(C)=O)CCC43O)C2)OC(C)C1OC1CC(OC)C(OC2CC(OC)C(OC3OC(C)C(OC4OC(CO)C(O)C(O)C4O)C(OC)C3O)C(C)O2)C(C)O1 (stereo unspecified)

["> 100 µM", "> 75 µM"]

====

- Tested on: K-562 leukemia
- METHOD NOTES: NCI tumour cell line growth inhibition, 48 h
QUANTITY NAME: GI50

COMPOUND	QUANTITY NAME	DATA VALUE
O=C(N/N=C/c1ccccc1O)c1ccccc1	GI50	3.59 µM
C=C1C[C@@H]2CC[C@@]34C[C@H]5O[C@H]6[C@@H](O3)[C@H]3O[C@H](CC[C@@H]3O[C@H]6[C@@H]5O4)CC(=O)C[C@@H]3[C@@H](OC)[C@@H](C[C@H](O)CN)O[C@H]3C[C@H]3O[C@@H](CC[C@@H]1O2)C[C@@H](C)C3=C	GI50	< 0.01 µM
COc1cc(NCCCCCCCNC(C)C)c2nccc(C)c2c1	GI50	3.46 µM
Oc1ccccc1-c1nn(CNc2ccccc2Cl)c(=S)o1	GI50	> 100 µM
COc1ccc2c(c1)/C(=C/c1cc(OC)c(OC)c(OC)c1)C(=O)N2	GI50	< 0.0327 µM

Determine its reported GI50: COc1ccc(/C(=N\NC(=S)NN)C(c2ccc(OC)cc2)C2C(=O)Oc3ccccc32)cc1 (stereo unspecified)
> 100 µM

====

- System: PC-3 prostate
- METHOD NOTES: NCI tumour cell line growth inhibition, 48 h; in the data active = GI50 below about 0.43 µM; inactive = the rest
Your response should consist of one outcome taken from Y (active), N (inactive)

Take a look at these entries with their results.
MOLECULE	DISCRETE LABEL
O=C1CCCCN1CCCCC#Cc1cccc(C#Cc2cccnc2)c1	N
COC(=O)C1(C)Cc2cc(OC(C)=O)c(OC(C)=O)cc2N1 (configuration not stated)	N
CN1/C(=C\C=C\C2=[N+](C)c3ccccc3C2(C)C)C(C)(C)c2ccccc21	Y
C=C1C(=O)O[C@H]2[C@H]1CC/C(C=Nc1c(N)cc(C(F)(F)F)cc1Br)=C\CC[C@@]1(C)O[C@@H]21	N
O=C(N/N=C/c1ccccc1O)c1ccccc1	N
CCNC(=O)c1noc(-c2cc(C(C)C)c(O)cc2O)c1-c1ccc(CN2CCOCC2)cc1	Y
C(=N\Nc1nnn(Cc2ccccc2)n1)/c1ccccc1	N
COc1ccc(C(=O)c2ccc([As]=O)cc2)cc1 (configuration not stated)	Y
O=c1c(F)cn(Cc2ccccc2CCl)c(=O)n1Cc1ccccc1CCl	N
Cc1cc(I)cc(CN(C)CCCN2CCCC2)c1O	N

Please state the recorded outcome for this molecule: CCCCn1c(-c2ccc(C(=O)O/N=C(\N)c3ccc4c(c3)OCO4)cc2)nc(-c2ccccc2)c1-c1ccccc1
N

Please state the recorded outcome for this molecule: COc1ccc(CN2C3CC2CN(c2ccc(-c4cc(OCC(C)(C)O)cn5ncc(C#N)c45)cn2)C3)cn1
N
